All figures here come from patent US8163756B2.

# Target or system: Abl kinase (Homo sapiens)
# Assay procedure: Abl kinase assay A2 (as A1, 1.1 nM enzyme, 2 h pre-incubation, 0.5 mM ATP)
# Assay type: biochemical
# Study conditions: Method A2; read-out: Abl Data (IC50)
Items are presented alongside their recorded IC50.
Numeric answer only, unit µM assumed.

Below, 5 compounds whose answers are already recorded.
Compound: Cn1c(=O)c(-c2cccc(NC(=O)Nc3cc(C4CCCC4)nn3-c3ccc4c(c3)CCC(=O)N4)c2)cc2cncnc21 [Example 134]
IC50 (µM): 0.052
//
Compound: CNC(=O)c1cc(Oc2ccc(NC(=O)Nc3cc(C(C)(C)C)nn3-c3ccc4c(c3)CCNC4)cc2)ccn1 [Example 148]
IC50 (µM): 0.0012
//
Compound: CC(C)(C)c1cc(NC(=O)Nc2cccc(Oc3cccnc3)c2)n(-c2ccc3c(c2)CC(C(=O)NCC(O)CO)NC3)n1 (stereo not drawn) [Example 182]
IC50 (µM): 0.0034
//
Compound: Cn1c(=O)c(-c2cccc(NC(=O)Nc3cc(C(C)(C)C)nn3-c3ccc4c(c3)CCN4S(C)(=O)=O)c2)cc2cncnc21 [Example 197]
IC50 (µM): 0.012
//
Compound: CC(C)(C)c1cc(NC(=O)Nc2cccc(Oc3cccnc3)c2)n(-c2cccc(-c3cccnc3)c2)n1 [Example 277]
IC50 (µM): 0.029

Shift focus to the following entry.
Suppose we examine the compound CC(C)(C)c1cc(NC(=O)Nc2cccc(Oc3cccnc3)c2)n(-c2ccc3c(c2)CCN3)n1 [Example 119] ; what IC50 value has been reported?
0.012

###

Items are presented alongside their recorded pIC50.
# Target or system: KDR kinase (Homo sapiens, UniProt P35968, DEL940-989/E990V)
# Sequence (P35968 with tags, fused parts or gaps DEL940-989/E990V): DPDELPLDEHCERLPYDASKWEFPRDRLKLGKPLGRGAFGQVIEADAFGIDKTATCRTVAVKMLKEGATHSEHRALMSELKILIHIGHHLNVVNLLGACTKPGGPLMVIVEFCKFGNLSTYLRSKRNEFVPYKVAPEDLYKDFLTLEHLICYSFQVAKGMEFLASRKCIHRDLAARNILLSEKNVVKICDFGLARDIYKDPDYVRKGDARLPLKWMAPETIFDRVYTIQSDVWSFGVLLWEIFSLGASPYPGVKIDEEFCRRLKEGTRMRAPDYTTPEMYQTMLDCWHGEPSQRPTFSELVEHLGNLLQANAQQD
# Assay procedure: KDR kinase assay K2 (as K1, 2.1 nM enzyme, 2 h pre-incubation, 1.0 mM ATP)
# Type: biochemical
# Study conditions: Method K2; read-out: KDR Data (IC50)
Please express pIC50 as -log10 of the molar concentration.

Suppose we examine the compound CCOC(=O)Cc1cccc(-n2nc(C(C)(C)C)cc2NC(=O)Nc2cccc(Cl)c2Cl)c1 ; what pIC50 value has been reported?
6.00

Suppose we examine the compound CCOC(=O)C1CCN(C(=O)Cc2ccc(-n3nc(C(C)(C)C)cc3NC(=O)Nc3cccc(Cl)c3Cl)cc2)CC1 ; what pIC50 value has been reported?
5.92

Suppose we examine the compound CC(C)(C)c1cc(NC(=O)Nc2cccc(Br)c2)n(-c2cccc(C#N)c2)n1 ; what pIC50 value has been reported?
6.07

###

# Target or system: phosphorylated p-38-alpha kinase (Homo sapiens)
# Sequence (Q16539 1-360 isoform Q16539-2): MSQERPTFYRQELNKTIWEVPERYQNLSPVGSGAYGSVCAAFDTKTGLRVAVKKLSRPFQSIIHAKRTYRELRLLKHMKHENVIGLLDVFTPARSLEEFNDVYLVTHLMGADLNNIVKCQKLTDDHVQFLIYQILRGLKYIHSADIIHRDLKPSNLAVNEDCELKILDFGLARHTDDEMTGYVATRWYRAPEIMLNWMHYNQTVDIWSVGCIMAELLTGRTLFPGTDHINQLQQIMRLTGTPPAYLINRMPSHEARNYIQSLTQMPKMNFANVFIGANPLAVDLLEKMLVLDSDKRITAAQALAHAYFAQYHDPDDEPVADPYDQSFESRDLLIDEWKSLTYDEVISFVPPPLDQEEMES
# Assay procedure: P-38 alpha kinase assay P1 (coupled spectrophotometric, 2 h pre-incubation)
# Type: biochemical
# Study conditions: method P1 (2 h pre-incubation); read-out: P-38 Data
Items are presented alongside their recorded pIC50.
Please express pIC50 as -log10 of the molar concentration.

Below, 3 compounds whose answers are already recorded.
Compound: CC(C)(C)c1cc(NC(=O)Nc2cccc3ccccc23)n(-c2ccc3c(c2)CCC(=O)N3)n1 [Example 198]
Quantity: pIC50
Obs value: 7.23
--
Compound: CC(C)(C)c1cc(NC(=O)Nc2cccc(Cl)c2Cl)n(-c2ccc3c(c2)CCC(=O)N3)n1 [Example 131]
Quantity: pIC50
Obs value: 7.48
--
Compound: CC(Cc1cccc(-n2nc(C(C)(C)C)cc2NC(=O)Nc2cccc(Cl)c2Cl)c1)C(=O)O (centres unmarked) [Example 267]
Quantity: pIC50
Obs value: 7.92

Suppose we examine the compound O=C(O)Cc1cccc(-n2nc(-c3ccccc3F)cc2NC(=O)Nc2cccc3ccccc23)c1 [Example 363] ; what pIC50 value has been reported?
7.89

###

# Target or system: phosphorylated p-38-alpha kinase (Homo sapiens)
# Assay procedure: P-38 alpha kinase assay P1 (coupled spectrophotometric, 2 h pre-incubation)
# Assay type: biochemical
# Study conditions: method P1 (2 h pre-incubation); read-out: P-38 Data
Quantity: pIC50
Please express pIC50 as -log10 of the molar concentration.

Suppose we examine the compound CC(C)(C)c1cc(NC(=O)Nc2cccc(Cl)c2Cl)n(-c2ccc3[nH]c(=O)ccc3c2)n1 ; what pIC50 value has been reported?
6.96

###

# Target or system: B-Raf(V599E) kinase (Homo sapiens, UniProt P15056, V600E)
# Assay procedure: B-Raf(V599E) kinase assay B2 (construct 2 at 2 nM, 1 h pre-incubation)
# Format: biochemical
# Sequence (P15056 433-726 V600E): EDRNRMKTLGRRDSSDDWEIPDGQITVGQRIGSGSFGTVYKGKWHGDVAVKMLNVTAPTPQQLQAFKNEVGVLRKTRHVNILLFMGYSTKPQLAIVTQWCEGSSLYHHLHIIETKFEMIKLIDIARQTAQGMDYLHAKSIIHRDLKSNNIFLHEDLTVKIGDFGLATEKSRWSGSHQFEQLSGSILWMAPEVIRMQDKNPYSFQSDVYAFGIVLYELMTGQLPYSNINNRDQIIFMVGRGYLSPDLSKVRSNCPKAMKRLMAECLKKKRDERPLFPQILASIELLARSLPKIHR
pIC50: −log10 of the molar value. Where a name gives a salt, the structure may show the parent alone.
If the reported pIC50 equals or exceeds 7, assign criterion met. If not, assign criterion not met.

Previously resolved entries follow.
Molecule: Cn1c(=O)c(-c2cccc(NC(=O)Nc3cc(C4CCCC4)nn3-c3ccc4c(c3)CCC(=O)N4)c2)cc2cncnc21
Target or system: B-Raf(V599E) kinase (Homo sapiens, UniProt P15056, V600E)
Class name: criterion met
--
Molecule: COc1cccc(-n2nc(C(C)(C)C)cc2NC(=O)Nc2ccccc2F)c1
Target or system: B-Raf(V599E) kinase (Homo sapiens, UniProt P15056, V600E)
Class name: criterion not met
--
Molecule: CC(C)(C)c1cc(NC(=O)Nc2ccc(-c3cccc4c3CNC4=O)cc2)n(-c2cccc(-c3cn[nH]c3)c2)n1
Target or system: B-Raf(V599E) kinase (Homo sapiens, UniProt P15056, V600E)
Class name: criterion met

Please check the record Cn1c(=O)c(-c2cccc(NC(=O)Nc3cc(C(C)(C)C)nn3-c3ccc4[nH]ccc4c3)c2)cc2cncnc21 and state if its pIC50 is at or above 7.
criterion met

Please check the record NC(=O)C1CCc2ccc(-n3nc(C4CCCC4)cc3NC(=O)Nc3cccc(Cl)c3Cl)cc21 (stereo not drawn) and state if its pIC50 is at or above 7.
criterion not met

Please check the record CC(C)(C)c1cc(NC(=O)Nc2cccc(Oc3cccnc3)c2)n(-c2cc(CC(N)=O)c3ccccc3c2)n1 [Example 86, hydrochloride] and state if its pIC50 is at or above 7.
criterion not met

Please check the record CC(C)(C)c1cc(NC(=O)Nc2cc(F)c(F)cc2F)n(-c2cccc(-c3cccnc3)c2)n1 and state if its pIC50 is at or above 7.
criterion not met

Please check the record COc1cccc(-n2nc(C(C)(C)C)cc2NC(=O)Nc2cccc(F)c2F)c1 and state if its pIC50 is at or above 7.
criterion not met

Please check the record CNC(=O)c1cc(Oc2cccc(NC(=O)Nc3cc(C(C)(C)C)nn3-c3ccc4[nH]c(=O)ccc4c3)c2)ccn1 and state if its pIC50 is at or above 7.
criterion met

###

# Target or system: B-Raf(V599E) kinase (Homo sapiens, UniProt P15056, V600E)
# Assay procedure: B-Raf(V599E) kinase assay B1 (construct 1, MEK1 substrate, coupled spectrophotometric)
# Format: biochemical
# Sequence (P15056 with tags, fused parts or gaps V600E): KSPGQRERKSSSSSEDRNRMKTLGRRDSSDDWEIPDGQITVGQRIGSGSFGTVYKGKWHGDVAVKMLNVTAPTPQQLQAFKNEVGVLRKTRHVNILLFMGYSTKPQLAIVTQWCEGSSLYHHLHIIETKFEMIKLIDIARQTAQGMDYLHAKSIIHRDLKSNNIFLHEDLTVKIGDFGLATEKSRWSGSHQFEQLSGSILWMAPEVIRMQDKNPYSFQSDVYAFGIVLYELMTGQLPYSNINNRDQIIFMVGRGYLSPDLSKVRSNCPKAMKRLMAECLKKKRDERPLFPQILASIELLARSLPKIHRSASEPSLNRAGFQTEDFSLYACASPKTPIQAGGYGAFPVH
Quantity: pIC50
Please express pIC50 as -log10 of the molar concentration.

Below, 2 compounds whose answers are already recorded.
Compound: CC(C)(C)c1cc(NC(=O)Nc2ccc(F)cc2F)n(-c2ccc3c(c2)CCNC3)n1 [Example 145]
Obs value: 7.89
--
Compound: CC(C)(C)c1cc(NC(=O)Nc2cccc(Oc3cccnc3)c2)n(-c2ccc3[nH]ccc3c2)n1 [Example 116]
Obs value: 8.23

Shift focus to the following entry.
Suppose we examine the compound CC(C)(C)c1cc(NC(=O)Nc2cc(F)cc(F)c2)n(-c2cc(CC(N)=O)c3ccccc3c2)n1 [Example 83] ; what pIC50 value has been reported?
8.07

###

# Target or system: Abl kinase (Homo sapiens, UniProt P00519)
# Sequence (P00519 229-512): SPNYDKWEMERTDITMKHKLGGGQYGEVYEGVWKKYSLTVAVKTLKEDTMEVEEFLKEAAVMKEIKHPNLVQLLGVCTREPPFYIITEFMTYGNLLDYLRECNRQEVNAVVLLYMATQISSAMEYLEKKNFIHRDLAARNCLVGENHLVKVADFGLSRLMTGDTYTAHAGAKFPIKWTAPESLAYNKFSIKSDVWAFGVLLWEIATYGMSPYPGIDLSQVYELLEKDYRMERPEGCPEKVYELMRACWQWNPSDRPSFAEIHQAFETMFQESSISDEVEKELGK
# Assay procedure: Abl kinase assay A2 (as A1, 1.1 nM enzyme, 2 h pre-incubation, 0.5 mM ATP)
# Type: biochemical
# Study conditions: Method A2; read-out: Abl Data (IC50)
Quantity: pIC50
Please express pIC50 as -log10 of the molar concentration.

Below, 5 compounds whose answers are already recorded.
Compound: CNC(=O)c1cc(Oc2ccc(NC(=O)Nc3cc(C(C)(C)C)nn3-c3ccc4nc(N(C)C)ccc4c3)cc2)ccn1
pIC50: 8.82

Compound: Cn1c(=O)c(-c2cccc(NC(=O)Nc3cc(C(C)(C)C)nn3-c3ccc4c(c3)CCNC4)c2)cc2cncnc21
pIC50: 8.92

Compound: CC(C)(C)c1cc(NC(=O)Nc2cccc(Oc3cccnc3)c2)n(-c2ccc3[nH]c(=O)ccc3c2)n1
pIC50: 8.30

Compound: CC(C)(C)c1cc(NC(=O)Nc2cccc(-c3ccc(N)nc3)c2)n(-c2ccc3c(c2)CCC(=O)N3)n1
pIC50: 4.83

Compound: CC(C)(C)c1cc(NC(=O)Nc2ccc(-c3cccc4c3CNC4=O)cc2)n(-c2ccc3c(c2)CC(C(N)=O)NC3)n1 (stereo not drawn)
pIC50: 7.70

Shift focus to the following entry.
Suppose we examine the compound CC(C)(C)c1cc(NC(=O)Nc2cc(F)c(F)cc2F)n(-c2cc(CC(N)=O)c3ccccc3c2)n1 ; what pIC50 value has been reported?
6.92
